Cited source: the nanobody polyreactivity screen of Harvey et al. (2022)

Method Notes: yeast display, Sf9 membrane polyspecificity reagent, FACS + sequencing; frameworks hold sequencing errors
Reported Property: polyreactivity (PSR sort gate)

Here's what some known entries look like.
| Sequence Code | Readout Value |
| --- | --- |
| QVQLVESGGGLVQAGGSLRLSCAASGLISYHYAMGWYRQAPGKERELVASISYTGGSTFYADSVKGRFTISRDNAKNTVYFQMNSLKPEDTAVYYCAAYRIWRPSYYYWGQGTQVTVSS | high polyreactivity |
| QVQLVESGGGLVQAGGSLRLSCAASGFTLYSYAMGWYRQAPGKERELVAAITRSGGITYYADSVKGRFTISRDNAKNTVYLQMNSLKPEDTAVYYCNAYRGGLSSEHYYWGQGTQVTVSS | high polyreactivity |
| QVQLVESGGGLVQAGGSLRLTCAASGRTFQYYAMGWYRQAPGKERELVAAISQDGGSTYYADSVKGRFTISRDNSKNSVYLQMNSLKPEDTAVYYCAARVDEYAYYALDDYWGQGTQVTVSS | low polyreactivity |
| QVQLVESGGGIVQAGRSLRLTCAASGITFKAYTMGWYRQAPGKERELVATISRGGRTYADSVKGRFTISRDNAKNTVYLQINSLKPEDTAVYYCAADKYWAQNDYWGQGTQVTVSS | low polyreactivity |
| QVQLVESGGGLVQAGGSLRLSCAASGNTFYFYAMGWYRQAPGKERELVASITRRGGSTYYADSVKGRFTISRDNAKNTVYLQMNSLKPEDTAVYYCARYPARYGGYYDYDYWGQGTQVTVSS | high polyreactivity |

Q: State, in one line, measured polyreactivity (PSR sort gate) of `QVQLVESWGGLVQAGGSLRLSCAASGSTFAQNTMGWYRQAPGKERELVATISDGGGSTYYADSVKGRFTISRDNAKNTVYLQMNSLKPEDTAVYYCNTDRFWPSYYWGQGTQVTVSS`
Result: low polyreactivity

Q: State, in one line, measured polyreactivity (PSR sort gate) of `QVQLVESGGGLVQAGGSLSLSWAASGFILKINTMGWYRPAPRKERDLVADITESGGNTYADSEKWRFTISRDNAKNTVYLQMNSLKPEVTAVYYCNDDIYISPLVQVSKGYDYWGQGTQVTVSS`
Result: low polyreactivity

Q: State, in one line, measured polyreactivity (PSR sort gate) of `QVQLVESGGGLVQAGGSIRLSCAASVFTFRANGMGWYRKAPGKERELVATITSGGTTNYADSVKGRFTISRDNAKNTVYLQMNSLIPEDTAVYYCNAGSVSDRQMDYWGQGTQGTVSS`
Result: low polyreactivity

Q: State, in one line, measured polyreactivity (PSR sort gate) of `QVQLVESGGGLVQAGGSLRLSCAASGRIFSSYTMGWYRQAPGKERELVAAISWRGGSTYYADSVKGRFTISRDNAKNTVYLQMNSLKPEDTAVYYCAADSRSDPGDYWGQGNQVTVSS`
Result: low polyreactivity

Q: State, in one line, measured polyreactivity (PSR sort gate) of `QVQLQESGGGLVQADGSLRLSCAASGSIFGYYYMGWYRQAPGKDRDLVATINICGITNYADSVNGRFTISRDNAKYTVYLQMNSLKPDDTAVYYCAADEFDQRDLGYWGQGTQVSVSS`
Result: low polyreactivity

Q: State, in one line, measured polyreactivity (PSR sort gate) of `QVQLVESGGGLVQAGGSLRLSCAASGIIFINYVKGWYRQAPGKESELVAAITGSGSSTYYADSVKGRFTISRDNAKNTVYLQMNSLKPEDTAVYYCAADNPRVRFLYYYWGQGTQVTVSS`
Result: high polyreactivity

Q: State, in one line, measured polyreactivity (PSR sort gate) of `QVQLVESGGGLVQAGGSLRLSCAASGRIFPYYDMGWYREAPGKERELVAAITWNGGSTYYADSVKGRFTISRDNAKNTVYLQMNSLKPADTAVYYCAVEPYYYGEDYWGQGTQVTVSS`
Result: low polyreactivity
